- MEASUREMENT_PROTOCOL: Log P by HPLC on reversed phase columns (EEC directive 79/831 Annex V.A8; methods [a], [b], [c])
- Assay type: physicochemical
METRIC: LogP

# MOLECULE, METRIC, VALUE_REPORTED
rows = [
    ("COC(Cn1cncc1C#N)c1ccc(Oc2ccc(Cl)cc2)cc1F (stereo not shown) [I-60]", "LogP", "3.65^[a]"),
    ("N#Cc1cncn1CC(O)(c1ccc(Cl)c(Br)c1)C1(F)CC1 (stereo not shown) [I-538]", "LogP", "2.71^[a]"),
    ("CCC(O)(Cn1cncc1C#N)c1ccccc1C(F)(F)F (stereo not shown) [I-329]", "LogP", "2.27^[a]"),
    ("CC(C)(C)CC(O)(Cn1cncc1C#N)c1ccccc1 (stereo not shown) [I-242]", "LogP", "2.77^[a]"),
    ("N#Cc1cncn1CC(O)(c1c(F)ccc(Cl)c1F)C1(Cl)CC1 (stereo not shown) [I-622]", "LogP", "2.47^[a]"),
    ("CCCC(O)(Cn1cncc1C#N)c1ccc(C(F)(F)F)cc1Cl (stereo not shown) [I-421]", "LogP", "3.23^[a]"),
    ("C[Si](C)(C)CC(O)(Cn1cncc1C#N)c1ccccc1Cl (stereo not shown) [I-306]", "LogP", "3.39^[a]"),
    ("CCOC(Cn1cncc1C#N)c1ccc(Oc2ccc(Cl)cc2)cc1Br (stereo not shown) [I-62]", "LogP", "4.51^[a]"),
    ("CCOC(Cn1cncc1C(N)=O)c1ccc(Oc2ccc(Cl)cc2)cc1C(F)(F)F (stereo not shown) [I-83]", "LogP", "2.54^[a]"),
    ("CCCCC(O)(Cn1cncc1C#N)c1ccc(F)cc1Cl (stereo not shown) [I-276]", "LogP", "2.95^[a]"),
]

###

LogP reference
- MEASUREMENT_PROTOCOL: Log P by HPLC on reversed phase columns (EEC directive 79/831 Annex V.A8; methods [a], [b], [c])
- Format: physicochemical

# COMPOUND, LogP
data = [
    ("CC(C)C(O)(Cn1cncc1C#N)c1ccccc1C(F)(F)F (stereo not shown)", "2.46^[a]"),
    ("C[Si](C)(C)CC(O)(Cn1cncc1C#N)c1ccccc1Br (stereo not shown)", "3.50^[a]"),
    ("CCCC(C)C#CC(O)(Cn1cncc1C#N)C1(Cl)CC1 (stereo not shown)", "2.82^[a]"),
    ("CC(C)(C)C(O)(Cn1cncc1C#N)c1ccc(F)c(Cl)c1 (stereo not shown)", "2.90^[a]"),
    ("CC(C)(C)CC(O)(Cn1cncc1C#N)c1ccc(C(F)(F)F)cc1F (stereo not shown)", "3.55^[a]"),
    ("N#Cc1cncn1CC(O)(C#CCC1CCCCC1)C1(F)CC1 (stereo not shown)", "3.11^[a]"),
    ("N#Cc1cncn1CC(O)c1ccc(Oc2ccc(Cl)cn2)cc1Cl (stereo not shown)", "2.54 ^[a]"),
    ("CC(O)(Cn1cncc1Cl)c1ccc(Oc2ccc(OC(F)(F)F)cc2)cc1Cl (stereo not shown)", "3.06^[a]"),
    ("N#Cc1cncn1CC(O)(c1ccc(-c2ccccc2)cc1)C1(Cl)CC1 (stereo not shown)", "2.94^[a]"),
    ("OC(C#CC1CCCC1)(Cn1cncc1C(F)(F)F)C1(Cl)CC1 (stereo not shown)", "3.37^[a]"),
    ("CC(O)(Cn1cncc1F)c1ccc(Oc2ccc(Cl)cc2)nc1F (stereo not shown)", "1.98^[a]"),
    ("CC(C)(C)C(O)(Cn1cncc1C#N)c1ccc(F)cc1F (stereo not shown)", "2.71^[a]"),
    ("N#Cc1cncn1CC(O)(c1ccc(Cl)nc1Br)C1(F)CC1 (stereo not shown)", "1.99^[a]"),
    ("N#Cc1cncn1CC(O)(CC1CC1)c1cccc(F)c1F (stereo not shown)", "2.20^[a]"),
    ("N#Cc1cncn1CC(O)(c1cc(Cl)c(Cl)cc1F)C1(F)CC1 (stereo not shown)", "2.68^[a]"),
    ("N#Cc1cncn1CC(O)(c1ccc(F)cc1C(F)(F)F)C1(F)CC1 (stereo not shown)", "2.46^[a]"),
    ("CC(=O)c1cncn1CC(C)(O)c1cnc(Oc2ccc(Cl)cc2)cc1C(F)(F)F (stereo not shown)", "2.78^[a]"),
    ("CC(C)(C)C(O)(Cn1cncc1C#N)c1ccc(F)c(Br)c1 (stereo not shown)", "2.97^[a]"),
    ("C[Si](C)(C)CC(O)(Cn1cncc1C#N)c1ccc(C(F)(F)F)cc1 (stereo not shown)", "3.55^[a]"),
    ("N#Cc1cncn1CC(O)(c1cc(F)cc(Cl)c1F)C1(F)CC1 (stereo not shown)", "2.29^[a]"),
    ("N#Cc1cncn1CC(O)(c1ccc(Cl)c(Cl)c1F)C1(Cl)CC1 (stereo not shown)", "2.76^[a]"),
    ("OC(CCCC1CCCCC1)(Cn1cncc1C(F)(F)F)C1(Cl)CC1 (stereo not shown)", "5.19^[a]"),
    ("N#Cc1cncn1CC(O)(c1ccc(Br)c(Cl)c1Cl)C1(F)CC1 (stereo not shown)", "2.80^[a]"),
    ("CC(=O)c1cncn1CC(C)(O)c1cnc(Oc2ccc(C(F)(F)F)cc2)cc1Br (stereo not shown)", "2.84^[a]"),
    ("CC(O)(Cn1cncc1C(F)(F)F)c1ccc(Oc2ccc(I)cc2)cc1F (stereo not shown)", "4.11^[a]"),
    ("C[Si](C)(C#CC(O)(Cn1cncc1C#N)C1(F)CC1)c1ccccc1 (stereo not shown)", "3.04^[a]"),
    ("CCCCC(O)(Cn1cncc1C#N)c1ccc(C(F)(F)F)cc1 (stereo not shown)", "2.94^[a]"),
    ("N#Cc1cncn1CC(O)c1ccc(Oc2ccc(Cl)cc2)nc1C(F)(F)F (stereo not shown)", "3.15^[a]"),
    ("N#Cc1cncn1CC(O)c1ccc(Oc2ccc(I)cc2)cc1Cl (stereo not shown)", "3.44^[a]"),
    ("N#Cc1cncn1CC(O)(c1ccc(Cl)cc1F)C1CCCCC1 (stereo not shown)", "3.42^[a]"),
    ("N#Cc1cncn1CC(O)(c1ccc(C#CC2CCCC2)cc1Cl)C1(F)CC1 (stereo not shown)", "4.01^[a]"),
    ("N#Cc1cncn1CC(O)(C#Cc1ccccc1Cl)C1(Cl)CC1 (stereo not shown)", "2.73^[a]"),
    ("N#Cc1cncn1CC(O)c1ccc(Oc2ccc(Cl)cc2)cc1C(F)(F)F (stereo not shown)", "3.35^[a]"),
    ("N#Cc1cncn1CC(O)(c1ccccc1Br)C1(Cl)CC1 (stereo not shown)", "2.37^[a]"),
    ("CC(O)(Cn1cncc1Br)c1ccc(Oc2ccc(I)cc2)cc1Br (stereo not shown)", "3.23^[a]"),
    ("COC(Cn1cncc1C#N)c1ccc(Oc2ccc(Cl)cc2)cc1C(F)F (stereo not shown)", "3.76^[a]"),
    ("CC(C)C(O)(Cn1cncc1C#N)c1ccc(F)cc1Br (stereo not shown)", "2.69^[a]"),
    ("N#Cc1cncn1CC(O)(c1cc(Cl)cc(F)c1F)C1(F)CC1 (stereo not shown)", "2.44^[a]"),
    ("OC(Cn1cncc1F)c1cnc(Oc2ccc(C(F)(F)F)cc2)cc1Cl (stereo not shown)", "2.27^[a]"),
    ("N#Cc1cncn1CC(=O)c1ccc(Oc2ccc(S(F)(F)(F)(F)F)cc2)nc1C(F)(F)F", "3.55^[a]"),
]
